target: mouse 11β-HSD1 (Mus musculus, UniProt P50172); construct: 100 ug/ml human/mouse liver microsomes; from tissue; host or cells: mouse liver microsomes; test: Enzyme activity analysis on mouse 11β-HSD1 (HTRF cortisol, liver microsomes); type: biochemical; details: second value of cell
Sequence (P50172 whole entry): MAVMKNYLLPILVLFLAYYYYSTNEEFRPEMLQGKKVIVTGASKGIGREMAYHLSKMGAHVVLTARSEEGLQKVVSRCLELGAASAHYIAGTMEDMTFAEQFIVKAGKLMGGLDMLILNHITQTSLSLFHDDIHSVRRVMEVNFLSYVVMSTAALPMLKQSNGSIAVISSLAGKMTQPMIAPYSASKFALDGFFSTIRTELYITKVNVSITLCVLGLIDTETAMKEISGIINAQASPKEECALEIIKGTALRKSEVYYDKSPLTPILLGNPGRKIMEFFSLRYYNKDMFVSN
measurement type: IC50 (µM)
Give bare numbers, in µM.

CN(C(C)(C)C(=O)NC1C2CC3CC1CC(O)(C3)C2)S(=O)(=O)c1ccccc1C(F)(F)F (stereo not drawn) [compound 208] : 0.092
COc1ccc(S(=O)(=O)NC(C)(C)C(=O)NC2C3CC4CC2CC(C(N)=O)(C4)C3)c(OC)c1 (stereo not drawn) [compound 129] : 0.589
CN(C(C)(C)C(=O)NC1C2CC3CC1CC(C(N)=O)(C3)C2)S(=O)(=O)c1ccccc1Cl (stereo not drawn) [compound 190] : 0.005

Report IC50 for each item below.
1. Cc1ccccc1S(=O)(=O)NC(C)(C)C(=O)NC1C2CC3CC(C2)CC1C3 (stereo not drawn) [compound 15]
2. Cc1c(Cl)cccc1S(=O)(=O)N(C)C(C)(C)C(=O)NC1C2CC3CC(C2)CC1C3 (stereo not drawn) [compound 200]

Result:
[0.313, 0.143]

Report IC50 for each item below.
1. CC(C)(NS(=O)(=O)c1ccc(Cl)cc1[N+](=O)[O-])C(=O)NC1C2CC3CC1CC(O)(C3)C2 (stereo not drawn) [compound 79]
2. CC(C)(NS(=O)(=O)c1cccnc1Cl)C(=O)NC1C2CC3CC1CC(C(N)=O)(C3)C2 (stereo not drawn) [compound 96]
3. Cc1ccc(S(=O)(=O)NC(C)(C)C(=O)NC2C3CC4CC2CC(C(N)=O)(C4)C3)cc1[N+](=O)[O-] (stereo not drawn) [compound 114]
4. NC(=O)C12CC3CC(C1)C(NC(=O)C1(NS(=O)(=O)c4ccccc4OC(F)(F)F)CCC1)C(C3)C2 (stereo not drawn) [compound 160]
5. CC(C)(NS(=O)(=O)c1c(F)cccc1F)C(=O)NC1C2CC3CC1CC(O)(C3)C2 (stereo not drawn) [compound 74]

Result:
[0.797, 0.289, 0.207, 0.113, 0.305]

Report IC50 for each item below.
1. CC(C)(NS(=O)(=O)c1ccccc1F)C(=O)NC1C2CC3CC1CC(O)(C3)C2 (stereo not drawn) [compound 69]
2. CC(C)(NS(=O)(=O)c1cc(F)c(F)c(F)c1)C(=O)NC1C2CC3CC1CC(C(N)=O)(C3)C2 (stereo not drawn) [compound 118]
3. CN(C(C)(C)C(=O)NC1C2CC3CC1CC(C(N)=O)(C3)C2)S(=O)(=O)c1ccccc1N (stereo not drawn) [compound 223]
4. NC(=O)C12CC3CC(C1)C(NC(=O)C1(NS(=O)(=O)c4cc(F)ccc4F)CCC1)C(C3)C2 (stereo not drawn) [compound 163]
5. CNC(=O)C12CC3CC(C1)C(NC(=O)C(C)(C)NS(=O)(=O)c1ccccc1Cl)C(C3)C2 (stereo not drawn) [compound 237]
6. CN(C(C)(C)C(=O)NC1C2CC3CC1CC(O)(C3)C2)S(=O)(=O)c1ccccc1Br (stereo not drawn) [compound 206]

Result:
1. 0.258
2. 0.224
3. 0.023
4. 0.443
5. 0.437
6. 0.041

Report IC50 for each item below.
1. CC(C)(NS(=O)(=O)c1cccc(Br)c1)C(=O)NC1C2CC3CC(C2)CC1C3 (stereo not drawn) [compound 64]
2. CC(C)(NS(=O)(=O)c1ccc(C(F)(F)F)cc1)C(=O)NC1C2CC3CC1CC(C(N)=O)(C3)C2 (stereo not drawn) [compound 126]
3. CC(C)(NS(=O)(=O)c1ccc(Br)cc1)C(=O)NC1C2CC3CC1CC(C(N)=O)(C3)C2 (stereo not drawn) [compound 124]

Result:
1: 1.02; 2: 0.455; 3: 0.22

Report IC50 for each item below.
1. Cc1cc(F)ccc1S(=O)(=O)NC(C)(C)C(=O)NC1C2CC3CC(C2)CC1C3 (stereo not drawn) [compound 39]
2. CC(C)(NS(=O)(=O)c1ccccc1[N+](=O)[O-])C(=O)NC1C2CC3CC(C2)CC1C3 (stereo not drawn) [compound 43]
3. CC(C)(NS(=O)(=O)c1cccc([N+](=O)[O-])c1)C(=O)NC1C2CC3CC1CC(O)(C3)C2 (stereo not drawn) [compound 77]
4. CC(C)(NS(=O)(=O)Cc1ccccc1[N+](=O)[O-])C(=O)NC1C2CC3CC(C2)CC1C3 (stereo not drawn) [compound 22]

Result:
0.561
0.085
0.575
1.06

Report IC50 for each item below.
1. NC(=O)C12CC3CC(C1)C(NC(=O)C1(NS(=O)(=O)c4c(Cl)cccc4Cl)CCCC1)C(C3)C2 (stereo not drawn) [compound 175]
2. Cc1ccc(F)cc1S(=O)(=O)NC(C)(C)C(=O)NC1C2CC3CC1CC(C(N)=O)(C3)C2 (stereo not drawn) [compound 95]
3. CC(C)(NS(=O)(=O)c1ccccc1)C(=O)NC1C2CC3CC(C2)CC1C3 (stereo not drawn) [compound 1]
4. CCN(C(C)(C)C(=O)NC1C2CC3CC1CC(C(N)=O)(C3)C2)S(=O)(=O)c1cccc(Cl)c1Cl (stereo not drawn) [compound 212]

Result:
0.003
0.144
0.19
0.191

Data provenance: patent US9073830B2
